Target: 5-hydroxytryptamine receptor 6 (Homo sapiens)
Sequence (P50406 whole entry): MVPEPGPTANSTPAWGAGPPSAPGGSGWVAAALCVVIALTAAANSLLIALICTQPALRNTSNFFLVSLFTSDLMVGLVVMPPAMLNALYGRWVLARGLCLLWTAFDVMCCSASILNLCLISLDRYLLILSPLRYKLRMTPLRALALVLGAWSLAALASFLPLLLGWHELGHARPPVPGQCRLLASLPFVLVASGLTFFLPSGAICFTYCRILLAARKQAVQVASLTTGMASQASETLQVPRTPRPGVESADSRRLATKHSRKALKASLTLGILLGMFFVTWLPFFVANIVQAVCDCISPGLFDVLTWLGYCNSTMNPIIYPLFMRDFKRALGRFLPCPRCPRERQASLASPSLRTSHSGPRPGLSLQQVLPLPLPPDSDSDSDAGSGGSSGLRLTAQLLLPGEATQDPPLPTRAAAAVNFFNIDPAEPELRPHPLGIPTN
Field 'label' (enum: Condition met / Condition not met). Set to Condition met when Ki is strictly under 7 nM; else Condition not met.

[
  {
    "SMILES_STR": "CCN(C)C(=O)Oc1cccc(CNCCNCCOc2cccc3c2ccn3S(=O)(=O)c2ccccc2)c1",
    "TARGET_ENTITY": "5-hydroxytryptamine receptor 6 (Homo sapiens)",
    "CLASS_ASSIGNMENT": "Condition not met"
  },
  {
    "SMILES_STR": "O=S(=O)(c1ccccc1)n1ccc2c(OCCNCCCCCCNc3c4c(nc5ccccc35)CCCC4)cccc21",
    "TARGET_ENTITY": "5-hydroxytryptamine receptor 6 (Homo sapiens)",
    "CLASS_ASSIGNMENT": "Condition not met"
  },
  {
    "SMILES_STR": "O=S(=O)(c1ccccc1)n1ccc2c(OCCNCCNCc3ccccc3)cccc21",
    "TARGET_ENTITY": "5-hydroxytryptamine receptor 6 (Homo sapiens)",
    "CLASS_ASSIGNMENT": "Condition met"
  },
  {
    "SMILES_STR": "O=S(=O)(c1ccccc1)n1ccc2c(OCCNCCCNc3c4c(nc5ccccc35)CCCC4)cccc21",
    "TARGET_ENTITY": "5-hydroxytryptamine receptor 6 (Homo sapiens)",
    "CLASS_ASSIGNMENT": "Condition not met"
  },
  {
    "SMILES_STR": "O=S(=O)(c1ccccc1)n1ccc2c(OCCNCCNc3c4c(nc5ccccc35)CCCC4)cccc21",
    "TARGET_ENTITY": "5-hydroxytryptamine receptor 6 (Homo sapiens)",
    "CLASS_ASSIGNMENT": "Condition not met"
  },
  {
    "SMILES_STR": "O=S(=O)(c1ccccc1)n1ccc2c(OCCNCCNCc3ccc(Cl)cc3)cccc21",
    "TARGET_ENTITY": "5-hydroxytryptamine receptor 6 (Homo sapiens)",
    "CLASS_ASSIGNMENT": "Condition met"
  },
  {
    "SMILES_STR": "COc1ccc(CNCCNCCOc2cccc3c2ccn3S(=O)(=O)c2ccccc2)cc1",
    "TARGET_ENTITY": "5-hydroxytryptamine receptor 6 (Homo sapiens)",
    "CLASS_ASSIGNMENT": "Condition met"
  },
  {
    "SMILES_STR": "O=S(=O)(c1ccccc1)n1ccc2c(OCCNCCCCNCc3ccccc3)cccc21",
    "TARGET_ENTITY": "5-hydroxytryptamine receptor 6 (Homo sapiens)",
    "CLASS_ASSIGNMENT": "Condition not met"
  }
]

###

Biological target: Amyloid-beta precursor protein (Homo sapiens)
Assay: Inhibition of HFIP-pretreated human recombinant amyloid beta (1 to 42) self aggregation at 10 uM incubated up to 48 hrs under shaking condition and measured every 3 min by Thioflavin T based fluorescence assay relative to control
inhibition values by entry

[
  {
    "SMILES_STR": "O=S(=O)(c1ccccc1)n1ccc2c(OCCNCCNCc3cc(Cl)cc(Cl)c3)cccc21",
    "inhibition [%]": 57.2
  },
  {
    "SMILES_STR": "O=S(=O)(c1ccccc1)n1ccc2c(OCCNCCNCc3ccc(Cl)cc3)cccc21",
    "inhibition [%]": 60.6
  },
  {
    "SMILES_STR": "O=S(=O)(c1ccccc1)n1ccc2c(OCCNCCNCc3ccc(F)cc3)cccc21",
    "inhibition [%]": 73.4
  },
  {
    "SMILES_STR": "O=S(=O)(c1ccccc1)n1ccc2c(OCCNCCCNc3c4c(nc5ccccc35)CCCC4)cccc21",
    "inhibition [%]": 61.1
  },
  {
    "SMILES_STR": "COc1ccc(CNCCNCCOc2cccc3c2ccn3S(=O)(=O)c2ccccc2)cc1",
    "inhibition [%]": 63.8
  },
  {
    "SMILES_STR": "O=[N+]([O-])c1ccc(CNCCNCCOc2cccc3c2ccn3S(=O)(=O)c2ccccc2)cc1",
    "inhibition [%]": 57.7
  },
  {
    "SMILES_STR": "O=S(=O)(c1ccccc1)n1ccc2c(OCCNCCCCCNCc3ccccc3)cccc21",
    "inhibition [%]": 62.5
  },
  {
    "SMILES_STR": "O=S(=O)(c1ccccc1)n1ccc2c(OCCNCCCCCNc3c4c(nc5ccccc35)CCCC4)cccc21",
    "inhibition [%]": 73.2
  },
  {
    "SMILES_STR": "O=S(=O)(c1ccccc1)n1ccc2c(OCCNCCNCc3ccccc3Cl)cccc21",
    "inhibition [%]": 57
  }
]

###

Notes on Ki obtained with 5-hydroxytryptamine receptor 6 (Homo sapiens).
EXPERIMENTAL_READOUT: Ki (nM)

[
  {
    "SMILES_STR": "O=[N+]([O-])c1ccc(CNCCNCCOc2cccc3c2ccn3S(=O)(=O)c2ccccc2)cc1",
    "DATA_VALUE": 2
  },
  {
    "SMILES_STR": "O=S(=O)(c1ccccc1)n1ccc2c(OCCNCCNCc3ccccc3Cl)cccc21",
    "DATA_VALUE": 3
  },
  {
    "SMILES_STR": "O=S(=O)(c1ccccc1)n1ccc2c(OCCNCCNCc3ccc(F)cc3)cccc21",
    "DATA_VALUE": 0.1
  },
  {
    "SMILES_STR": "Cc1cccc(CNCCNCCOc2cccc3c2ccn3S(=O)(=O)c2ccccc2)c1",
    "DATA_VALUE": 2
  },
  {
    "SMILES_STR": "O=S(=O)(c1ccccc1)n1ccc2c(OCCNCCNCc3cccc(C(F)(F)F)c3)cccc21",
    "DATA_VALUE": 1.7
  }
]

###

Target: Acetylcholinesterase (Electrophorus electricus, UniProt O42275)
Sequence (O42275 whole entry): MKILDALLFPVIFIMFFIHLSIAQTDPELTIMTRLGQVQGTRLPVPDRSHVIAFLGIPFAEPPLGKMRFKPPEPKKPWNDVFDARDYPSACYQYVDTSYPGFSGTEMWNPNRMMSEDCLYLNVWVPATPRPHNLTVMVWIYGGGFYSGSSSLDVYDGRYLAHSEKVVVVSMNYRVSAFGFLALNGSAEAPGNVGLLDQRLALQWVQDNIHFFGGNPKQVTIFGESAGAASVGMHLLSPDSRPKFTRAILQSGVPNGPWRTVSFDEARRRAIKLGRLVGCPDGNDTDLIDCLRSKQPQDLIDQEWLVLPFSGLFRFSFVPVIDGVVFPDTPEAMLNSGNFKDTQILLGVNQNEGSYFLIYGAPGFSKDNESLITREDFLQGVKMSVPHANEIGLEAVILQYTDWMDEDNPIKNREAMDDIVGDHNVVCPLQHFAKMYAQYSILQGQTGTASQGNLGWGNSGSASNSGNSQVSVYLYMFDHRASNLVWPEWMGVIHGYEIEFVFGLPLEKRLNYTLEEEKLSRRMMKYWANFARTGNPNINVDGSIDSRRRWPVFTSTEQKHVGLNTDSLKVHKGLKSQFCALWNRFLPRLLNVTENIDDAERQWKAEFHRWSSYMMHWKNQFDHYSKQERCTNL
Assay: Inhibition of electric eel AChE using acetylthiocholine iodide as substrate incubated for 5 mins followed by substrate addition and measured after 5 mins by spectrophotometric based Ellman's method
Conditions: read-out: IC50
IC50 values by entry

[
  {
    "SMILES_STR": "O=S(=O)(c1ccccc1)n1ccc2c(OCCNCCCCCNc3c4c(nc5ccccc35)CCCC4)cccc21",
    "IC50 [µM]": 0.303
  },
  {
    "SMILES_STR": "O=S(=O)(c1ccccc1)n1ccc2c(OCCNCCCCCCNc3c4c(nc5ccccc35)CCCC4)cccc21",
    "IC50 [µM]": 0.0725
  },
  {
    "SMILES_STR": "O=S(=O)(c1ccccc1)n1ccc2c(OCCNCCNCc3ccc(F)cc3)cccc21",
    "IC50 [µM]": 6210
  },
  {
    "SMILES_STR": "O=S(=O)(c1ccccc1)n1ccc2c(OCCNCCCCNc3c4c(nc5ccccc35)CCCC4)cccc21",
    "IC50 [µM]": 0.0575
  },
  {
    "SMILES_STR": "O=S(=O)(c1ccccc1)n1ccc2c(OCCNCCNCc3cccc(Cl)c3)cccc21",
    "IC50 [µM]": 4.84
  },
  {
    "SMILES_STR": "O=S(=O)(c1ccccc1)n1ccc2c(OCCNCCNCc3ccccc3)cccc21",
    "IC50 [µM]": 2.87
  },
  {
    "SMILES_STR": "O=S(=O)(c1ccccc1)n1ccc2c(OCCNCCNc3c4c(nc5ccccc35)CCCC4)cccc21",
    "IC50 [µM]": 0.00842
  },
  {
    "SMILES_STR": "O=S(=O)(c1ccccc1)n1ccc2c(OCCNCCCNc3c4c(nc5ccccc35)CCCC4)cccc21",
    "IC50 [µM]": 0.0209
  },
  {
    "SMILES_STR": "Cc1cccc(CNCCNCCOc2cccc3c2ccn3S(=O)(=O)c2ccccc2)c1",
    "IC50 [µM]": 4470
  },
  {
    "SMILES_STR": "O=S(=O)(c1ccccc1)n1ccc2c(OCCNCCNCc3ccccc3Cl)cccc21",
    "IC50 [µM]": 4.24
  }
]

###

Molecular target: Amyloid-beta precursor protein (Homo sapiens, UniProt P05067)
Sequence (P05067 whole entry): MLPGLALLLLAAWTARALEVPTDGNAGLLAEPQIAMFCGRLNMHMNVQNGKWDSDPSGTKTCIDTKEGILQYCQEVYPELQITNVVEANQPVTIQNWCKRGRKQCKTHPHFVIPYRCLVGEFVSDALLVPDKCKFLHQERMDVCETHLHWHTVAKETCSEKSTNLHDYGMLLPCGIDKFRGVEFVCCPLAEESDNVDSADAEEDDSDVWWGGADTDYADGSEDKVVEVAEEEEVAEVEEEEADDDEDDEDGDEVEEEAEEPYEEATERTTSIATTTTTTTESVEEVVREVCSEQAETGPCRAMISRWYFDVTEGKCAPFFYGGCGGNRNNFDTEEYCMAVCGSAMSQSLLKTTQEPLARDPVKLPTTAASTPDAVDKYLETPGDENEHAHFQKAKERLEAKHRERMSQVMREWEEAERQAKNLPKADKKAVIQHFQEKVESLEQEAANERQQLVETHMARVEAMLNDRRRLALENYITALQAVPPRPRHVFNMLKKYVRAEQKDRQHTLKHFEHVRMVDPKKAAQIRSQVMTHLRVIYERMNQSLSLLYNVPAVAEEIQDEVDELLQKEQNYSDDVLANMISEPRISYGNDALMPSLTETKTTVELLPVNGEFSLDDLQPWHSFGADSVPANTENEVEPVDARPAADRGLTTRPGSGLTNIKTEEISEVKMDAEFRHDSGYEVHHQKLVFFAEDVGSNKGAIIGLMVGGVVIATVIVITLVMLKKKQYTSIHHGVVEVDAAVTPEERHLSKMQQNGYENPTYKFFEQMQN
Assay: Inhibition of amyloid beta (1 to 42) (unknown origin) aggregation expressed in Escherichia coli BL21 (DE3) at 10 uM incubated for 24 hrs by microplate reader assay relative to control

[
  {
    "SMILES_STR": "Cc1cccc(CNCCNCCOc2cccc3c2ccn3S(=O)(=O)c2ccccc2)c1",
    "inhibition, %": 48.5
  },
  {
    "SMILES_STR": "O=S(=O)(c1ccccc1)n1ccc2c(OCCNCCNCc3cccc(C(F)(F)F)c3)cccc21",
    "inhibition, %": 37.1
  },
  {
    "SMILES_STR": "O=[N+]([O-])c1ccc(CNCCNCCOc2cccc3c2ccn3S(=O)(=O)c2ccccc2)cc1",
    "inhibition, %": 31.6
  },
  {
    "SMILES_STR": "O=S(=O)(c1ccccc1)n1ccc2c(OCCNCCNCc3cc(Cl)cc(Cl)c3)cccc21",
    "inhibition, %": 40.9
  },
  {
    "SMILES_STR": "O=S(=O)(c1ccccc1)n1ccc2c(OCCNCCNCc3cccc(Cl)c3)cccc21",
    "inhibition, %": 25.7
  },
  {
    "SMILES_STR": "O=S(=O)(c1ccccc1)n1ccc2c(OCCNCCNCc3ccc(Cl)cc3)cccc21",
    "inhibition, %": 31.9
  },
  {
    "SMILES_STR": "O=S(=O)(c1ccccc1)n1ccc2c(OCCNCCCCCNCc3ccccc3)cccc21",
    "inhibition, %": 36.5
  }
]

Values from ChEMBL document CHEMBL4842370
